Sourced from patent US20170305894A1

Reported values of EC50 for individual entries
TESTED_SYSTEM: Human PPARδ (Homo sapiens, UniProt Q03181)
Construct: (PPARδ amino acid 128 to C-terminus); expressed in transfected cells; host or cells: CV-1 cells
TEST_METHOD_NOTES: PPARδ activity screen: GAL4-PPARδ LBD luciferase transactivation in CV-1 cells
Assay type: cell-based
READOUT_TYPE: EC50 (nM)

| STRUCTURE_AS_SMILES | READOUT_TYPE | UNITS_LABEL | EXPERIMENTAL_VALUE |
| --- | --- | --- | --- |
| C/C(=C\COc1ccccc1Cc1c(C)noc1-c1ccc(-c2ccco2)cc1)CCC(=O)O | EC50 | nM | 2.9 |
| Cc1nc(-c2ccc(-c3ccco3)cc2)c(Cc2ccccc2OCCCCCC(=O)O)s1 | EC50 | nM | 18 |
| Cn1cc(Cc2ccccc2OCCCCCC(=O)O)c(-c2ccc(-c3ccco3)cc2)n1 | EC50 | nM | 117 |
| C/C(=C\COc1ccccc1Cc1c(C)n[nH]c1-c1ccc(-c2ccco2)cc1)CCC(=O)O | EC50 | nM | 1.2 |

###

Reported values of EC50 for individual entries
TESTED_SYSTEM: Human PPARδ (Homo sapiens)
Construct: (PPARδ amino acid 128 to C-terminus); expressed in transfected cells; host or cells: CV-1 cells
Sequence (Q03181 128-441 limits assumed): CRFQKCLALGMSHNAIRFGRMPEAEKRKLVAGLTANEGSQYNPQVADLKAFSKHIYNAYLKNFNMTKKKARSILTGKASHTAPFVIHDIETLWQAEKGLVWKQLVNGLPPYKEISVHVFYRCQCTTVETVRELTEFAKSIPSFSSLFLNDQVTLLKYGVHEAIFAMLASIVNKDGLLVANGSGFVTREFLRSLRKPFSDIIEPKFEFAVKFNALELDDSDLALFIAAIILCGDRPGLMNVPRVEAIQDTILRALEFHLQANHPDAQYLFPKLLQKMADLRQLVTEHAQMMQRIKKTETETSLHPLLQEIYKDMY
TEST_METHOD_NOTES: PPARδ activity screen: GAL4-PPARδ LBD luciferase transactivation in CV-1 cells
Type: cell-based
EXPERIMENTAL_SETUP: CV-1 cells, GAL4-PPARδ LBD luciferase reporter, compound for 24 h; read-out: PPAR delta transactivation EC50

| COMPOUND | EC50 (nM) |
| --- | --- |
| C/C(=C\COc1ccccc1Cn1c(C)cnc1-c1ccc(Cl)nc1)CCC(=O)O [Compound 8r] | 5.5 |
| Cc1cnc(-c2ccc(-c3ccco3)cc2)n1Cc1ccccc1OCCCCC(C)(C)C(=O)O [Compound 8d] | 4.5 |
| Cc1cn(Cc2ccccc2OCCCCCC(=O)O)c(-c2ccc(-c3ccc(C)o3)cc2)n1 [Compound 8j] | 56 |
| Cc1cnc(-c2ccc(-c3ccco3)cc2)n1Cc1ccccc1OCCCCCC(=O)O [Compound 8a] | 0.9 |
| C/C(=C\COc1ccccc1Cn1c(C)cnc1-c1ccc(-c2ccco2)cc1)CCC(=O)O [Compound 8e] | 1 |
| Cc1cn(Cc2ccccc2OCCCCCC(=O)O)c(-c2ccc(-c3ccco3)cc2)n1 [Compound 8i] | 15.7 |
| Cc1cnc(-c2ccc(-c3ccco3)cc2)n1Cc1ccccc1CCCCCCC(=O)O [Compound 8q] | 3.1 |
| Cc1cnc(-c2ccc(C#CC(F)(F)F)cc2)n1Cc1ccccc1OCCCCCC(=O)O [Compound 8g] | 8.3 |
